// provenance: patent US11116757B2

study target: DCN1-UBC12 interaction (Homo sapiens (Human))
Sequence (Q96GG9 60-248 limits assumed): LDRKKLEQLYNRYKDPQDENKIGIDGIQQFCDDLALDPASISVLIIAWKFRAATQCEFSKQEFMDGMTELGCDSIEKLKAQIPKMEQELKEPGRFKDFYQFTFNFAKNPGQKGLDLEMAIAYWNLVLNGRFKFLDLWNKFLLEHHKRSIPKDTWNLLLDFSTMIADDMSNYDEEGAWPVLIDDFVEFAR
assay remarks: biochemical
Type: binding
run conditions: read-out: TR-FRET IC50
pIC50: −log10 of the molar value.
experimental endpoint: pIC50

Guide cases for pIC50, answers given:
molecule: CCc1ccc(NC(=O)NC2CCN(C(C)C)CC2)cc1 [B62]
data value: < 4.17
//
molecule: CC(=O)N1CCC(N(Cc2ccco2)C(=O)Nc2ccccc2C(F)(F)F)CC1 [B76]
data value: < 4.17
//
molecule: O=C(Nc1cccc(C(F)(F)F)c1)NC1CCN(C(=O)c2ccccc2)CC1 [A306]
data value: < 4.01
//
molecule: COc1cc(C(=O)N2CCCC(c3nc4ccccc4s3)C2)cc(OC)c1OCC(N)=O (stereo not drawn) [D24]
data value: < 4.17

q: Please look up its pIC50: CCN1CCC(N(Cc2ccco2)C(=O)Nc2ccc(C)c(Cl)c2)CC1 [B6]
a: 5.16

q: Please look up its pIC50: COc1cccc(CN2CCC(N(Cc3ccccc3)C(=O)Nc3cc(F)cc(C(F)(F)F)c3)CC2)c1 [A231]
a: < 4.54

q: Please look up its pIC50: CCN1CCC(N(Cc2ccc3c(c2)OCO3)C(=O)Nc2cccc(Br)c2)CC1 [B4]
a: 5.39

q: Please look up its pIC50: COc1cc(OC)cc(C(=O)N2CCC(c3nc4ccccc4s3)CC2)c1 [D22]
a: < 4.17

q: Please look up its pIC50: CCCC(C)N1CCC(N(Cc2ccccc2)C(=O)Nc2cc(C)cc(Cl)c2)CC1 (stereo not drawn) [A99]
a: 5.85
